# System: TO-3-N3-2 (biotin conjugate)
# TEST NAME: pull-down binding Z-score (relative to library population); higher = stronger binding
# STATED CONDITIONS: RNA library: Library-2
Would you please tag the item t when its pull-down binding Z-score is -0.2 or above, and f when it is below?

{"columns": ["ORDERED RESIDUES", "CATEGORY LABEL"],
 "data": [
  ["GCAGCACUGUGCUGGGGAUGUUGC [hsa-mir-1301]", "t"],
  ["GUCUCCUACUAAAUUAAAUGAUCUCUGCUUUACUAAUGUCUAUGCAGAUUCAUUUGUAAUUAGAGGUGAU", "f"],
  ["AGUUACACAGCUCACGAGUGCCU [hsa-mir-370]", "t"],
  ["AACUGCUUUUGGCUUAGUUGCAGAGUGGUU", "t"],
  ["UCAGCUGUGAGCUCAAGGUGGCUGG [hsa-mir-30c-1]", "t"],
  ["AGGUAGUGUUUAGUUAUCUACU [hsa-mir-20a]", "t"],
  ["UGUGAUUUUAAUAGCUUCUUAGGAGAAUGACA [SHAPE_invivo_SARS-CoV-2_Motif_573]", "t"],
  ["GGUCAGAAUGAUC [IAV_invivo_NP_5_Motif_12+IAV_invivo_NP_5_Motif_12]", "t"],
  ["CUUCAGAGCAGGGUUUGGUCUGUGCUUCUCUG [hsa-mir-6719]", "f"],
  ["GCGCUGCCAGAAACUGGCUUAAGCGC [bulge-UUA]", "f"]
]}

* * *

# Tested on: TO-N3-2 (biotin conjugate)
# TEST NAME: pull-down binding Z-score (relative to library population); higher = stronger binding
# STATED CONDITIONS: RNA library: Library-2

{"columns": ["ORDERED RESIDUES", "pull-down binding Z-score"],
 "data": [
  ["ACCAGGAGUUUUCUGUGGUGUAGAUGCUGUAAAUUUACUUACUAAUAUGUUUACACCACUAAUUCAACCUAUUGGU [SHAPE_invitro_SARS-CoV-2_Motif_181]", -0.878],
  ["GCAAAUUGCACAAUUUGC", -0.158],
  ["UCCUUUUCUCUACCUUGUAGAGAAGCA [hsa-mir-3609]", -0.258],
  ["UUCAGUUUCCUUACUGGUAA [hsa-mir-302e]", -0.299],
  ["CAGGUGCCUCAAAGGGCAUCCCACCUG [hsa-mir-3151]", 0.0349],
  ["GCUGUUGGUCGGGUUGUGACAUUGCCCGCUGUGGAGAUAACUGC [hsa-let-7i]", 1.01],
  ["GGGUGGGCGGGGGCGGCCGGUGGGAACCCCGCCCCGCCCCGCGCCCGCACUCACCC [hsa-mir-7108]", 4.08],
  ["GGAAGAGACAGGUACGUUAAUAGUUAAUAGCGUACUUCUUUUUC", -0.494],
  ["CCUUUGUGAGCAGUGUGACCCAAGGCCUGUGGACAGGG [hsa-mir-555]", 1.15],
  ["GGAUGGUCUUCAAUCC [IAV_invivo_PB1_2_Motif_23+IAV_invivo_PB1_2_Motif_23]", -0.515],
  ["GCUGGGGGUAAAUGACUUGCACAUGAACACAAC [hsa-mir-708]", 0.578],
  ["GGUUUUGCCAUCAUGCCAAAAGCU [hsa-mir-548v]", 0.259],
  ["GAUUUGUCUUCUACAAUUUGCCUAUGCCAACAGGAAUAGGUUUUUGUAUAUAAUUAAGUUAAUUUUCCUCUGGCUGUUAUGGCCAGUAACUUUAGCUUGUUU", -0.904],
  ["UUUUCUGUCCUGUCCACACAGAAAA [hsa-mir-1537]", -0.902],
  ["GACUCAUUCAAGGAGGAGUU [SHAPE_invivo_SARS-CoV-2_Motif_469]", -0.297],
  ["UGUGUGAUAUCAGACA", -0.597],
  ["GAGGAUGCAGGAGAGGAAGGGGGCUUCUUUUUGACGCCUACUUCAUCAGCUGCUCCUC [hsa-mir-4330]", 1.56],
  ["GUGAUAGAGCCAUGCCUAACAUGCUUAGAAUUAUGGCCUCAC", -0.0566],
  ["CCCACGUCGCAUGCGCCCCGGGAAAGCGUGGG [hsa-mir-3180-1_3180-3_3180-2]", 0.515],
  ["CUGUGGGUUUUACACUUAAAAACACAG [DMSMaPseq_invitro_SARS-CoV-2_Motif_239]", -0.754],
  ["GGUUCACUAUAUGUUAAACCAGGUGGAACC", -0.369],
  ["GAAGCUGUGAAGCCACAGAUGGGCUUU [hsa-mir-30a]", 0.641],
  ["GCUUCUCUUUCUCACCAGCAGC [hsa-mir-4467]", -0.0165],
  ["CGGGCUUAUGUUGCUCG", -0.956],
  ["GACGAUUUGAAUUAAUAAAUUC [hsa-mir-579]", -0.419],
  ["CUAACAGGCCCCUGUCACCAUUAG [hsa-mir-5579]", 0.236],
  ["AUGAUUUUUGGGGUCA [hsa-mir-4678]", -0.328],
  ["GCUAGUGCUGGCUCAAUGCAAUGC [hsa-mir-502]", 0.637],
  ["GCGCAGCCAGAAACUGGCAGCGC [mismatch-AA]", -0.354],
  ["CCCAGAGAAAGCCUGAACGUUGGG [hsa-mir-585]", 0.386],
  ["UAGGCCCACUGCUCAGUGGAGC [hsa-mir-7847]", 0.845],
  ["UGCAGUUAGUGAAGCAGCUUAGAAUCUACUGCC [hsa-mir-18b]", 1.47],
  ["GACCCUAAGACUAAAAAUGUUACAAAAGAAAAUGACUCUAAAGAGGGUUUUUUCACUUACAUUUGUGGGUU", -0.519],
  ["UUGGCGUUAAGAUUCUAAAAUUAUCUCCAG [hsa-mir-16-1]", -0.642],
  ["AACACUUCCCACAGAAGUGUU", -0.817],
  ["GGAUGAAAGUCAAAGAAUCC [hsa-mir-1262]", 0.0488],
  ["GACUUGCUUUAGCACUCAAUUUGCUUUUGCUUGUC", -1.08],
  ["GUGGUUUCAGGGCAGUGAUGUUGCCCCUCGGAAGAUAACUAU [hsa-let-7b]", 0.235],
  ["GUCGCUACAGGAUUGGCAACUAUAAAUUAAACACAGACCAUUCCAGUAGCAGUGAC [SHAPE_invitro_SARS-CoV-2_Motif_494]", -0.283],
  ["UAGGUUUUUCUACAGGUGUUAACCUA [SHAPE_invitro_SARS-CoV-2_Motif_336]", -0.856],
  ["CUCUAUGACAAACUUGUUUCAAGCUUUUUGGAAAUGAAGAGUGAAAAGCAAGUUGAACAAAAGAUCGCUGAG", -0.00802]
]}

* * *

Reported values of pull-down binding Z-score for individual entries
# Tested on: G-clamp-N3 (biotin conjugate)
# TEST NAME: pull-down binding Z-score (relative to library population); higher = stronger binding
# STATED CONDITIONS: RNA library: Library-1 (pre-miRNA loops + repeats)

{"columns": ["ORDERED RESIDUES", "pull-down binding Z-score"],
 "data": [
  ["AUCACUGAAAUAUGUCUGAGCUUCUGUU [hsa-mir-4501]", -0.332],
  ["CAUGUGGUGGAACGAUGGAAACGGAACAUG [hsa-mir-218-2]", 1.07],
  ["UCCCAGCCACUCUGGAGG [hsa-mir-4419b]", 0.653],
  ["UUGCUCACGGUAAGAAAAACAUGAGUAA [hsa-mir-8062]", 0.431],
  ["CUAAAUGGUACCCACUUUAUUUAG [hsa-mir-5687]", -0.726],
  ["GUGAUGUGAGGAGCAACAGGCACCCUCCU [hsa-mir-6792]", -0.596],
  ["GAUAUGCCAUUAUGUGGGUCAUGAGGUGGUGA [hsa-mir-6864]", 0.225],
  ["GUGAGCUGGAAAUGGGGUGCUAC [hsa-mir-598]", 1.37],
  ["AGAUGAAAUGCCUUUGAUUU [hsa-mir-3658]", -1.49],
  ["CGCGGAGCAGCGCUGGGUGCAGCGCCUG [hsa-mir-4508]", -0.567],
  ["UUCUCGGUUGGCCGCAGACUCGUACAAGAA [hsa-mir-219b]", 0.895]
]}

* * *

# Tested on: TO-3-N3-2 (biotin conjugate)
# TEST NAME: pull-down binding Z-score (relative to library population); higher = stronger binding
# STATED CONDITIONS: RNA library: Library-2
// class 0 strictly below -0.4 in pull-down binding Z-score; class 1 otherwise

{"columns": ["ORDERED RESIDUES", "CATEGORY LABEL"],
 "data": [
  ["CAGGCUGGUCUCAAACUCCUGGUCUG [hsa-mir-1285-1]", "class 1"],
  ["GCUGAGGCUUCUAAGAAGCCUCGGC", "class 0"],
  ["UCUCGUUCACUGGGGA [IAV_invivo_PA_3_Motif_5+IAV_invivo_PA_3_Motif_5]", "class 1"],
  ["UUGUGGCAAUACAG [hsa-mir-8068]", "class 1"],
  ["UGGGUUGGGUUGGGUUGGGUUGGGUUGGGUUGGGUUGGGU [G4_r(UGGGU)8]", "class 1"],
  ["GGGGACGACCU [IAV_invivo_NA_6_Motif_17+IAV_invivo_NA_6_Motif_17]", "class 0"],
  ["CUGUGAAUCCAAGAUCCACA [hsa-mir-4527]", "class 0"],
  ["UUCAGAUUUUGGAACAUUUCGGAUUUUGGA [hsa-mir-1290]", "class 1"],
  ["UCCUGAGCUAGGAGGAUUAGGA [hsa-mir-5093]", "class 1"],
  ["AGAAGGCCUAUGGUGAUUUGCAUUCUU [hsa-mir-6875]", "class 1"]
]}
